Every entry's value here was drawn from PubChem BioAssay AID485270.

Measured inhibition of individual entries
TARGET_OR_TEST_SYSTEM: Orexin/Hypocretin receptor type 1 (Homo sapiens) (UniProt O43613)
Sequence (O43613 whole entry, looked up): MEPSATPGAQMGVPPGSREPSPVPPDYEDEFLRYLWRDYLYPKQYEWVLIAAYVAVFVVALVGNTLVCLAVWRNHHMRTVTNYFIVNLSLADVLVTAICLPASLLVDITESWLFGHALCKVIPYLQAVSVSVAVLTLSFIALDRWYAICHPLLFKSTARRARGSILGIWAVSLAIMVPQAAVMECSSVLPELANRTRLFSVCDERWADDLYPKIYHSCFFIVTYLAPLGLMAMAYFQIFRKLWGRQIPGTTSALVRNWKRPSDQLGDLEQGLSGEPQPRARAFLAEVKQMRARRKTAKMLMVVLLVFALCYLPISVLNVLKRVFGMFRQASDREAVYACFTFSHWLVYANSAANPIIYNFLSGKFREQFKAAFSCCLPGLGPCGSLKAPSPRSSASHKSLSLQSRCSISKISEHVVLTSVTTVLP
TEST_PROTOCOL: antagonists of human orexin 1 receptor (OX1R) (AID 485270);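 further: 0% = agonist challenge alone and 100% = reference antagonist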
PROTOCOL_CONDITIONS: OX1R-expressing cells, FRET antagonist read-out; at 6.6 µM; stronger effect = higher value
In all, about 330,000 compounds went through this assay and about 5,800 (1.8%) were called active. This excerpt belongs to a sample that is enriched for actives.

Study these solved cases before continuing.
COc1ccc(-c2sc3ccccc3c2-c2ccc(OCCN3CCOCC3)cc2)cc1: -1.97% (inactive)
COc1cc(C(=S)N2CCOCC2)cc(OC)c1OC(=O)c1cc([N+](=O)[O-])c(C)c([N+](=O)[O-])c1: 8.29% (inactive)
COc1ccc2[nH]c3c(c2c1)CCN1C(=O)C(CC(=O)NCCCN(C)C)C[C@H](C(=O)N2CCOCC2)[C@@]31CCC1CCCC1 (some centres undefined): -1.98% (inactive)
COc1ccc(CCNC(=O)COC(=O)Cc2ccccc2F)cc1: 2.3% (inactive)
O=C1NC(=O)C2C1C(c1ccc([N+](=O)[O-])cc1)=NN2Cc1ccccc1 (centres undefined): 75.4% (active)
O=C(CCCNS(=O)(=O)c1cccc2nsnc12)NCCN1CCN(c2ccccc2F)CC1: 26.2% (inactive)
O=C(O)c1ccc(NS(=O)(=O)c2ccc3c(c2)C(=O)c2cc(S(=O)(=O)Nc4ccc(C(=O)O)cc4)ccc2-3)cc1: 18.6% (inactive)
O=C(COC(=O)c1cccc(Cl)c1)NC(=O)NCc1ccccc1: 4.12% (inactive)

Asked: Data request, read-out inhibition, for `Cc1c(C(=O)OCC(=O)N(CCC#N)c2ccccc2)oc2c1ccc1ccccc12`
Given back: 60.1% (active)

Asked: Data request, read-out inhibition, for `N#CCCN(C(=O)COC(=O)c1ccc2c(c1)OCCO2)c1ccccc1`
Given back: 11% (inactive)

Asked: Data request, read-out inhibition, for `CCSc1nsc(NC(=O)Nc2cccc(C(C)=O)c2)n1`
Given back: 84.2% (active)

Asked: Data request, read-out inhibition, for `CC[C@]12c3[nH]c4ccc(Cl)cc4c3CCN1C(=O)[C@@H](CC(=O)NCCN1CCOCC1)C[C@@H]2C(=O)N1CCN(C(=O)C2CC2)CC1`
Given back: 3.88% (inactive)

Asked: Data request, read-out inhibition, for `Cc1cccc(C)c1NC(=O)CCS(=O)(=O)c1cccc2nsnc12`
Given back: 70.3% (active)

Asked: Data request, read-out inhibition, for `C=C(C)C(=O)Nc1cccc(C(C)=O)c1`
Given back: 8.59% (inactive)

Asked: Data request, read-out inhibition, for Cc1cc(-c2ccc(C)c(S(=O)(=O)NC(C)Cc3ccco3)c2)on1 (centres undefined)
Given back: 46% (active)

Asked: Data request, read-out inhibition, for `COc1ccc(C)cc1NC(=O)CCS(=O)(=O)c1cccc2nonc12`
Given back: 48.1% (inactive)

Asked: Data request, read-out inhibition, for CC(Oc1ccc2c(-c3ccccc3)cc(=O)oc2c1)C(=O)NC(Cc1c[nH]c2ccccc12)C(=O)O (centres undefined)
Given back: 12.5% (inactive)

Asked: Data request, read-out inhibition, for COc1ccccc1CCNC(=O)C(=O)NCCC1CCCCN1S(=O)(=O)c1cccs1 (centres undefined)
Given back: 57.5% (active)

Asked: Data request, read-out inhibition, for `C[C@@H](CN1CCC[C@H]1CN1C(N)=NC[C@@H]1Cc1ccccc1)N1C[C@@H](Cc2ccccc2)N(CCCC2CCCC2)C1=N`
Given back: 11.4% (inactive)

Asked: Data request, read-out inhibition, for CC1=NN(c2ccccc2)C(=O)C1C(=O)c1ccc([N+](=O)[O-])cc1 (centres undefined)
Given back: 33.4% (inactive)

###

TARGET_OR_TEST_SYSTEM: Orexin/Hypocretin receptor type 1 (Homo sapiens)
TEST_PROTOCOL: antagonists of human orexin 1 receptor (OX1R) (AID 485270);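 further: 0% = agonist challenge alone and 100% = reference antagonist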
PROTOCOL_CONDITIONS: OX1R-expressing cells, FRET antagonist read-out; at 6.6 µM
In all, about 330,000 compounds went through this assay and about 5,800 (1.8%) were called active. Cut-off read from the data, not from the text of the source: active = inhibition mostly above about 38% (no sharp cut-off); inactive = mostly below about 40%. Only a selection was taken, and actives are over-represented in it overall.
# output must be one of active, inactive

Asked: Any idea what this test logged for `CCOCCCNC(=O)c1cc2c(=O)n3ccccc3nc2s1` ?
Given back: inactive

Asked: Any idea what this test logged for `Cc1c(/C=N\NC(=O)c2cc3ccccc3o2)c2ccccc2n1C` ?
Given back: active

Asked: Any idea what this test logged for Cc1c(/C=N/N2C(=O)C3C4C=CC(C4)C3C2=O)c2ccccc2n1C (stereo unspecified) ?
Given back: inactive

Asked: Any idea what this test logged for Cn1nccc1C(=O)NC1CCCc2c1cnn2-c1ccccc1F (stereo unspecified) ?
Given back: inactive

Asked: Any idea what this test logged for `COCCNC(=O)Nc1ccc2nc(-c3ccco3)c(-c3ccco3)nc2c1` ?
Given back: active

Asked: Any idea what this test logged for `Cc1cc(=O)oc(C)c1C(=O)NCc1ccc(F)cc1` ?
Given back: inactive

Asked: Any idea what this test logged for `CCCC(=O)Nc1ccc2c(c1)nc(CCNC(=O)c1ccco1)n2C` ?
Given back: inactive

###

TARGET_OR_TEST_SYSTEM: Orexin/Hypocretin receptor type 1 (Homo sapiens) (UniProt O43613)
TEST_PROTOCOL: antagonists of human orexin 1 receptor (OX1R) (AID 485270);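 further: 0% = agonist challenge alone and 100% = reference antagonist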
PROTOCOL_CONDITIONS: OX1R-expressing cells, FRET antagonist read-out; at 6.6 µM; stronger effect = higher value
The campaign covered roughly 330,000 compounds. About 5,800 (1.8%) were called active. This excerpt belongs to a sample that is enriched for actives.
READOUT_KIND: inhibition (%)
Give the quantity in %, number only.

Asked: Data request, read-out inhibition, for `O=C(Nc1cccnc1Cl)c1cc(-c2cccc(Cl)c2)on1`
Given back: 11.7

Asked: Data request, read-out inhibition, for `O=C(Cn1cnc2ccccc2c1=O)NNC(=O)c1ccccc1F`
Given back: 6.41

Asked: Data request, read-out inhibition, for `COC(=O)[C@]1(Cc2ccccc2)N[C@H](CN(C)S(=O)(=O)c2ccc(OC(F)(F)F)cc2)[C@@H]2C(=O)N(Cc3ccccc3)C(=O)[C@@H]21`
Given back: 5.26

Asked: Data request, read-out inhibition, for `CCOC(=O)[C@H]1[C@H]2COc3cc(OC)ccc3[C@@H]2N2C(=O)CN(Cc3ccc(Cl)cc3)C(=O)[C@@]12C`
Given back: 7.39

Asked: Data request, read-out inhibition, for `COc1ccc(-c2csc3nc(-c4ccccc4F)oc(=O)c23)cc1OC`
Given back: 46.9

Asked: Data request, read-out inhibition, for `Fc1ccc(-n2c(Cc3ccccc3)nnc2SCc2nc(-c3ccc(Cl)cc3)no2)cc1`
Given back: 35

###

TARGET_OR_TEST_SYSTEM: Orexin/Hypocretin receptor type 1 (Homo sapiens)
TEST_PROTOCOL: antagonists of human orexin 1 receptor (OX1R) (AID 485270);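 further: 0% = agonist challenge alone and 100% = reference antagonist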
PROTOCOL_CONDITIONS: OX1R-expressing cells, FRET antagonist read-out; at 6.6 µM
The whole screen tested about 330,000 compounds, of which about 5,800 (1.8%) were called active. No stated cut-off is given here; in the data, active means inhibition mostly above about 38% (no sharp cut-off); inactive means mostly below about 40%. What follows is part of a selection rich in actives, with near analogues and random picks from the rest.
# output must be one of 1 for active, 0 for inactive

Cc1ccc(NC(=O)C2CCC(C(C)(C)C)CC2)cc1S(=O)(=O)N1CCOCC1 (stereo unspecified): 0
NC(=S)N/N=C/c1ccc([N+](=O)[O-])cc1: 1
C=CCn1c(SCn2nnc3ccccc3c2=O)nnc1-c1ccc(Cl)cc1: 0
CCOc1ccc(/C=N/NC(N)=S)cc1: 0
C=CCn1c(SCc2c(C(=O)OC)sc(N)c2C(=O)OC)nnc1-c1ccc(Cl)cc1: 1

Asked: Any idea what this test logged for `Cc1ccsc1C(=O)N/N=C/c1ccc([N+](=O)[O-])cc1` ?
Given back: 0

###

TARGET_OR_TEST_SYSTEM: Orexin/Hypocretin receptor type 1 (Homo sapiens) (UniProt O43613)
TEST_PROTOCOL: antagonists of human orexin 1 receptor (OX1R) (AID 485270);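 further: 0% = agonist challenge alone and 100% = reference antagonist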
PROTOCOL_CONDITIONS: OX1R-expressing cells, FRET antagonist read-out; at 6.6 µM
The whole screen tested about 330,000 compounds, of which about 5,800 (1.8%) were called active. No stated cut-off is given here; in the data, active means inhibition mostly above about 38% (no sharp cut-off); inactive means mostly below about 40%. The sample holds actives, similar compounds and a random draw of the others, so the mix is not that of the screen.
# output must be one of active, inactive

O=C(O)C(NS(=O)(=O)c1cccc2nsnc12)c1ccccc1 (stereo not given): inactive

Asked: Any idea what this test logged for CC(=O)c1cccc(NC(=O)C2CCCN2S(=O)(=O)c2cccc3nsnc23)c1 (stereo not given) ?
Given back: active

Asked: Any idea what this test logged for Cc1ccc2nsnc2c1S(=O)(=O)N1CCCC1C(=O)O (stereo not given) ?
Given back: inactive

Asked: Any idea what this test logged for CC(=O)c1ccc(NC(=O)C2CCCN2S(=O)(=O)c2cccs2)cc1 (stereo not given) ?
Given back: inactive

Asked: Any idea what this test logged for `COc1ccc(N(C)C(=O)C2CCN(S(=O)(=O)c3cccc4nsnc34)CC2)cc1` ?
Given back: inactive
